Target: glycine binding site of the NMDA receptor channel (Rattus norvegicus, UniProt P35439)
Construct: from tissue; host or cells: rat brain cortex and hippocampus membrane homogenate
Assay: Receptor binding, displacement of (3H)-MDL 105.519 on rat cerebral membrane homogenates
Conditions: 10 μmol/l test substance; 1 nmol/l (3H)-MDL 105.519; read-out: Displacement (%, 10 μmol/l) of radioactive ligand from specific binding
Protocol: Receptor Binding (Glycine Binding Site of the NMDA Receptor Channel) […] In the binding test, 50 mmol/l TRIS-acetate buffer pH 7.0 was used as buffer and 1 nmol/l (^3H)-MDL 105.519 (B. M. Baron et al 1996) was used as radioactive ligand. The proportion of unspecific binding was determined in the presence of 1 mmol/l glycine. […]
RESULT_TYPE: inhibition at 10 µM (%)

Record excerpt, results attached:
COMPOUND	UOM	inhibition at 10 µM
O=C(O)C1Nc2cc(Cl)cc(Cl)c2C2C=CCC12 (stereo not drawn)	%	100
CCOC(=O)C1Nc2cc(Cl)cc(Cl)c2C(c2ccccc2)C1C (stereo not drawn)	%	21
Cc1ccc(C2CC(C(=O)O)Nc3c2ccc(Cl)c3Cl)c(C)c1 (stereo not drawn)	%	33
Cc1ccc(C2CC(C(=O)O)Nc3c(Cl)cc(Br)cc32)c(C)c1 (stereo not drawn)	%	46
Cc1cccc(C2CC(C(=O)O)Nc3c(F)cc(Cl)cc32)c1 (stereo not drawn)	%	93

a = O=C(O)C1CC(c2cccc(Br)c2)c2c(Cl)cc(Cl)cc2N1 (stereo not drawn)
b = O=C(O)C1CC(c2ccc(Cl)cc2)c2cc(Cl)c(C(F)(F)F)cc2N1 (stereo not drawn)
c = CCOC(=O)C1Nc2cc(Cl)cc(Cl)c2C2c3ccccc3CC12 (stereo not drawn)
d = CCOC(=O)C1Nc2cc(Cl)cc(Cl)c2C2C3CCC(C3)C12 (stereo not drawn)
With regard to inhibition at 10 µM, arrange the entries in ascending order, please. Give me the labels in the order the question wants.
c, d, b, a

* * *

molecular target: glycine binding site of the NMDA receptor channel (Rattus norvegicus, UniProt P35439); test: Receptor binding, displacement of (3H)-MDL 105.519 on rat cerebral membrane homogenates; conditions: mean from three independent experiments; from IC50 by Cheng-Prussoff equation; 1 nmol/l (3H)-MDL 105.519
RESULT_TYPE: Ki (nM)
Dear colleague, please return just the value in nM, with no unit written.

Give reported Ki value for O=C(O)C1Nc2cc(Cl)cc(Cl)c2C2C=CCC12 (stereo not shown) [Example 2]
300

* * *

biological target: glycine binding site of the NMDA receptor channel (Rattus norvegicus); construct: from tissue; host or cells: rat brain cortex and hippocampus membrane homogenate; assay: Receptor binding, displacement of (3H)-MDL 105.519 on rat cerebral membrane homogenates; conditions: 10 μmol/l test substance; 1 nmol/l (3H)-MDL 105.519; read-out: Displacement (%, 10 μmol/l) of radioactive ligand from specific binding
RESULT_TYPE: inhibition at 10 µM (%)

COMPOUND	inhibition at 10 µM (%)
CCOC(=O)C1Nc2c(Cl)cc(Br)cc2C(c2ccccc2)C1C (centres unmarked) [Example 90]	46

a = O=C(O)C1CC(c2ccc3ccccc3c2)c2cc(F)cc(Cl)c2N1 (centres unmarked) [Example 81]
b = CCOC(=O)C1CC(c2ccccc2Cl)c2c(Cl)cc(Cl)cc2N1 (centres unmarked) [Example 33]
c = CCOC(=O)C1CC(c2ccccc2Cl)c2cc(Cl)ccc2N1 (centres unmarked) [Example 52]
With regard to inhibition at 10 µM, arrange the entries in ascending order, please. Give me the labels in the order the question wants.
c, b, a
(c: 22%, b: 40%, a: 66%)

From: patent US6699877B2
